- Species on record: Canis familiaris
- assay name: In vitro electrophysiological evaluation in canine cardiac Purkinje fibres reported as % change for action potential duration at a concentration of 10 uM
- Type: functional, Canis lupus familiaris, Purkinje fiber
Kindly state APD95 for each of the entries shown.
Answer in %, number only, no unit symbol.

Specify APD95 for C=C[C@H]1CN2CC[C@H]1C[C@@H]2[C@@H](O)c1ccnc2ccc(OC)cc12 [QUINIDINE] and stop.
-9

Specify APD95 for CC(=O)C(CC1C(=O)C2CCN1CC2)C(=O)c1ccc([N+](=O)[O-])cc1.Cl (stereo not given) and stop.
28

Specify APD95 for OC1C2CCN(CC2)C1CCCc1ccc(Cl)cc1 (stereo not given) and stop.
12

Specify APD95 for CCOC(=O)C(CC1C(=O)C2CCN1CC2)C(=O)c1ccc(Cl)c(NS(C)(=O)=O)c1.Cl (stereo not given) and stop.
9

Specify APD95 for Cl.O=C1C2CCN(CC2)C1CCCc1ccccc1 (stereo not given) and stop.
-6

---

- Test system: Canis familiaris
- assay name: Heart rate was determined by intraduodenal administration of two dosages of 10 mg/kg of compound in anesthetized dogs. Value was reported for experiment 2
- Type: functional, Canis lupus familiaris
Returns one of t or f; t when HR is >= -10%.

Does "CCCCCCC[N+]12CCC(CC1)/C(=C/Cc1ccc(Cl)cc1)C2.[Br-]" have a reported HR of at least -10%?
f

Does Cl.O=C(CCC1C(=O)C2CCN1CC2)c1ccc([N+](=O)[O-])cc1 (stereo unspecified) have a reported HR of at least -10%?
f

Does CC(=O)C(CC1C(=O)C2CCN1CC2)C(=O)c1ccc(Cl)cc1.Cl (stereo unspecified) have a reported HR of at least -10%?
f

Does Cl.O=C1C2CCN(CC2)C1CCCc1ccc(Cl)cc1 (stereo unspecified) have a reported HR of at least -10%?
f

Does CC(=O)C(CC1C(=O)C2CCN1CC2)C(=O)c1ccc([N+](=O)[O-])cc1.Cl (stereo unspecified) have a reported HR of at least -10%?
f

Does OC1C2CCN(CC2)C1CCCc1ccc(Cl)cc1 (stereo unspecified) have a reported HR of at least -10%?
t

---

- Species on record: Canis familiaris
- assay name: In vitro electrophysiological evaluation in canine cardiac Purkinje fibres reported as % change for action potential duration at a concentration of 10 uM
- Type: functional, Canis lupus familiaris, Purkinje fiber
readout type: APD95 (%)
Answer in %, number only, no unit symbol.

Specify APD95 for CCOC(=O)C(CC1C(=O)C2CCN1CC2)C(=O)c1ccc(Cl)c([N+](=O)[O-])c1.Cl (configuration not stated) and stop.
0

Specify APD95 for CCN(CC)CC(=O)Nc1c(C)cccc1C [LIDOCAINE] and stop.
-23

Specify APD95 for Cl.O=C(CCC1C(=O)C2CCN1CC2)c1ccccc1 (configuration not stated) and stop.
-3

Specify APD95 for CS(=O)(=O)Nc1ccc(C(=O)CCC2C(=O)C3CCN2CC3)cc1.Cl (configuration not stated) and stop.
16

Specify APD95 for CCOC(=O)C(CC1C(=O)C2CCN1CC2)C(=O)c1ccc(NS(C)(=O)=O)cc1.Cl (configuration not stated) and stop.
11

Specify APD95 for CCN(CC)CCNC(=O)c1ccc(N)cc1.Cl [PROCAINAMIDE HYDROCHLORIDE] and stop.
-4

Specify APD95 for CCOC(=O)C(CC1C(=O)C2CCN1CC2)C(=O)c1ccc([N+](=O)[O-])cc1.Cl (configuration not stated) and stop.
2

---

- Species: Canis familiaris
- assay name: In vitro electrophysiological evaluation in canine cardiac Purkinje fibres reported as % change for action potential duration at 10 uM at 1-100 uM concentration range
- Type: functional, Canis lupus familiaris, Purkinje fiber
readout type: APD95 (%)
Answer in %, number only, no unit symbol.

Specify APD95 for Cl.O=C(CCC1C(=O)C2CCN1CC2)c1ccccc1 (centres undefined) and stop.
-1

Specify APD95 for Cl.O=C(CCC1C(=O)C2CCN1CC2)c1ccc(Cl)c([N+](=O)[O-])c1 (centres undefined) and stop.
1

Specify APD95 for CC(=O)C(CC1C(=O)C2CCN1CC2)C(=O)c1ccccc1.Cl (centres undefined) and stop.
-5

Specify APD95 for CS(=O)(=O)Nc1cc(C(=O)CCC2C(=O)C3CCN2CC3)ccc1Cl.Cl (centres undefined) and stop.
-3

Specify APD95 for CCOC(=O)C(CC1C(=O)C2CCN1CC2)C(=O)c1ccc(Cl)c([N+](=O)[O-])c1.Cl (centres undefined) and stop.
-2

Specify APD95 for CCOC(=O)C(CC1C(=O)C2CCN1CC2)C(=O)c1ccc(Cl)c(NS(C)(=O)=O)c1.Cl (centres undefined) and stop.
-4

Specify APD95 for CS(=O)(=O)Nc1ccc(C(=O)CCC2C(=O)C3CCN2CC3)cc1.Cl (centres undefined) and stop.
5

Specify APD95 for CCOC(=O)C(CC1C(=O)C2CCN1CC2)C(=O)c1ccc(NS(C)(=O)=O)cc1.Cl (centres undefined) and stop.
12

Specify APD95 for OC1C2CCN(CC2)C1CCCc1ccc(Cl)cc1 (centres undefined) and stop.
13

---

- Test system: Canis familiaris
- assay name: Mean arterial blood pressure was determined by intraduodenal administration of two dosages of 10 mg/kg of compound in anesthetized dogs. Value was reported for experiment 2
- Assay type: functional, Canis lupus familiaris
readout type: Mean blood pressure
Write the figure, then the unit, nothing else.

Recall the reported Mean blood pressure of Cl.O=C1C2CCN(CC2)C1CCCc1ccc(Cl)cc1 (stereo unspecified) on Canis familiaris and write it down.
24%

Recall the reported Mean blood pressure of "CCCCCCC[N+]12CCC(CC1)/C(=C/Cc1ccc(Cl)cc1)C2.[Br-]" on Canis familiaris and write it down.
42%

Recall the reported Mean blood pressure of OC1C2CCN(CC2)C1CCCc1ccc(Cl)cc1 (stereo unspecified) on Canis familiaris and write it down.
0%

Recall the reported Mean blood pressure of CC(=O)C(CC1C(=O)C2CCN1CC2)C(=O)c1ccc(Cl)cc1.Cl (stereo unspecified) on Canis familiaris and write it down.
-4%

Recall the reported Mean blood pressure of Cl.O=C(CCC1C(=O)C2CCN1CC2)c1ccc([N+](=O)[O-])cc1 (stereo unspecified) on Canis familiaris and write it down.
-10%

Recall the reported Mean blood pressure of CC(=O)C(CC1C(=O)C2CCN1CC2)C(=O)c1ccc([N+](=O)[O-])cc1.Cl (stereo unspecified) on Canis familiaris and write it down.
-39%

---

Kindly state APD95 for each of the entries shown.
- Organism: Canis familiaris
- assay name: In vitro electrophysiological activity in canine cardiac occurred is 100 uM
- Assay type: functional, Canis lupus familiaris, Heart
Answer in %, number only, no unit symbol.

Specify APD95 for CC(=O)C(CC1C(=O)C2CCN1CC2)C(=O)c1ccccc1.Cl (centres undefined) and stop.
-19

Specify APD95 for CC(=O)C(CC1C(=O)C2CCN1CC2)C(=O)c1ccc(Cl)cc1.Cl (centres undefined) and stop.
-16

Specify APD95 for Cl.O=C(CCC1C(=O)C2CCN1CC2)c1ccccc1 (centres undefined) and stop.
-16

Specify APD95 for CS(=O)(=O)Nc1cc(C(=O)CCC2C(=O)C3CCN2CC3)ccc1Cl.Cl (centres undefined) and stop.
17

---

Kindly state APD95 for each of the entries shown.
- Species on record: Canis familiaris
- assay name: In vitro electrophysiological evaluation in canine cardiac Purkinje fibres reported as % change for action potential duration at a concentration of 10 uM
- Format: functional, Canis lupus familiaris, Purkinje fiber
Answer in %, number only, no unit symbol.

Specify APD95 for CC(=O)C(CC1C(=O)C2CCN1CC2)C(=O)c1ccccc1.Cl (stereo unspecified) and stop.
-6

Specify APD95 for Cl.O=C(CCC1C(=O)C2CCN1CC2)c1ccc([N+](=O)[O-])cc1 (stereo unspecified) and stop.
36

Specify APD95 for Cl.O=C1C2CCN(CC2)C1CCCc1ccc(Cl)cc1 (stereo unspecified) and stop.
6

Specify APD95 for CS(=O)(=O)Nc1cc(C(=O)CCC2C(=O)C3CCN2CC3)ccc1Cl.Cl (stereo unspecified) and stop.
-4

Specify APD95 for Cl.O=C(CCC1C(=O)C2CCN1CC2)c1ccc(Cl)cc1 (stereo unspecified) and stop.
13

Specify APD95 for CC(=O)C(CC1C(=O)C2CCN1CC2)C(=O)c1ccc(Cl)cc1.Cl (stereo unspecified) and stop.
23

---

- Species on record: Canis familiaris
- assay name: In vitro electrophysiological activity in canine cardiac Purkinje fibres given as maximum % change for action potential duration at 0.1-10 uM concentration
- Type: functional, Canis lupus familiaris, Purkinje fiber
readout type: APD95 (%)
Answer in %, number only, no unit symbol.

Specify APD95 for "CCCCCCC[N+]12CCC(CC1)/C(=C/Cc1ccc(Cl)cc1)C2.[Br-]" and stop.
50

Specify APD95 for "Cl.Clc1ccc(C/C=C2\CN3CCC2CC3)cc1" and stop.
29

Specify APD95 for CCCCCCC[N+](CC)(CC)CCCCc1ccc(Cl)cc1.O=P([O-])(O)O [CLOFILIUM PHOSPHATE] and stop.
52

Specify APD95 for CCCCCCC[N+]12CCC(CC1)C(CCc1ccc(Cl)cc1)C2.[Br-] (centres undefined) and stop.
26
